# assay.procedure: activity coefficient (dimensionless); of the first substance listed, at infinite dilution; xn = mol fraction of the nth substance listed
# particulars: 323.15 K; 101.3 kPa; Liquid; Chromatography; x1 = 0
outcome.measure: activity coefficient
One number for each entry.

C=Cc1ccccc1 [styrene] + CCn1cc[n+](C)c1.COP(=O)([O-])OC
5.29

Hey, quick one: what's activity coefficient for each of these?
1. CC(C)CC(C)(C)C [2,2,4-trimethylpentane] + CCn1cc[n+](C)c1.COP(=O)([O-])OC
2. Cc1ccccc1 [toluene] + COP(=O)([O-])OC.Cn1cc[n+](C)c1
3. CCCCCC [hexane] + COP(=O)([O-])OC.Cn1cc[n+](C)c1
4. C1=CCCCC1 [cyclohexene] + COP(=O)([O-])OC.Cn1cc[n+](C)c1
5. Cc1ccccc1C [1,2-dimethylbenzene] + CCn1cc[n+](C)c1.COP(=O)([O-])OC
6. CCCCCCC [heptane] + CCn1cc[n+](C)c1.COP(=O)([O-])OC
7. c1ccccc1 [benzene] + CCn1cc[n+](C)c1.COP(=O)([O-])OC
8. Cc1cccc(C)c1 [1,3-dimethylbenzene] + COP(=O)([O-])OC.Cn1cc[n+](C)c1

[170, 7.54, 246, 31.6, 9.8, 151, 3.33, 14.4]

----------
# assay.procedure: activity coefficient (dimensionless); of the first substance listed, at infinite dilution; xn = mol fraction of the nth substance listed
# particulars: 313.15 K; 101.3 kPa; Liquid; Chromatography; x1 = 0
Lab note: cut-off is 200. Strictly less in activity coefficient is 1. Exactly 200 or more is 0.

For orientation, consider the following solved cases.
CCCCCCCCC [nonane] + CCn1cc[n+](C)c1.COP(=O)([O-])OC
0
Cc1cccc(C)c1 [1,3-dimethylbenzene] + CCn1cc[n+](C)c1.COP(=O)([O-])OC
1
CCCCCCC [heptane] + CCn1cc[n+](C)c1.COP(=O)([O-])OC
1
Cc1ccccc1C [1,2-dimethylbenzene] + COP(=O)([O-])OC.Cn1cc[n+](C)c1
1
CCCCC [pentane] + COP(=O)([O-])OC.Cn1cc[n+](C)c1
0

Input C1CCCCC1 [cyclohexane] + CCn1cc[n+](C)c1.COP(=O)([O-])OC ; condition: activity coefficient strictly below 200. Does it hold? 1

Please check: activity coefficient for CCCCCCCCCC [decane] + CCn1cc[n+](C)c1.COP(=O)([O-])OC , strictly under 200 or not? 0

Hello, I'm reviewing records and need to know if activity coefficient of Cc1ccccc1 [toluene] + CCn1cc[n+](C)c1.COP(=O)([O-])OC is below 200. Could you check? 1

Hello, I'm reviewing records and need to know if activity coefficient of CC(C)CC(C)(C)C [2,2,4-trimethylpentane] + CCn1cc[n+](C)c1.COP(=O)([O-])OC is below 200. Could you check? 1

----------
# assay.procedure: activity coefficient (dimensionless); of the first substance listed, at infinite dilution; xn = mol fraction of the nth substance listed
# particulars: 353.15 K; 101.3 kPa; Liquid; Chromatography; x1 = 0
outcome.measure: activity coefficient
One number for each entry.

CCCCCCCCC [nonane] + CCn1cc[n+](C)c1.COP(=O)([O-])OC
197
Cc1ccccc1 [toluene] + CCn1cc[n+](C)c1.COP(=O)([O-])OC
5.56
CCCCC [pentane] + CCn1cc[n+](C)c1.COP(=O)([O-])OC
60.5
CC(C)CC(C)(C)C [2,2,4-trimethylpentane] + CCn1cc[n+](C)c1.COP(=O)([O-])OC
132
C=Cc1ccccc1 [styrene] + CCn1cc[n+](C)c1.COP(=O)([O-])OC
4.86

Need activity coefficient for each of these compounds.
1. CCCCCCCC [octane] + CCn1cc[n+](C)c1.COP(=O)([O-])OC
2. Cc1ccccc1C [1,2-dimethylbenzene] + COP(=O)([O-])OC.Cn1cc[n+](C)c1
3. C1=CCCCC1 [cyclohexene] + CCn1cc[n+](C)c1.COP(=O)([O-])OC
4. Cc1ccc(C)cc1 [1,4-dimethylbenzene] + COP(=O)([O-])OC.Cn1cc[n+](C)c1

1: 144; 2: 12.1; 3: 16.9; 4: 13.2

----------
# assay.procedure: activity coefficient (dimensionless); of the first substance listed, at infinite dilution; xn = mol fraction of the nth substance listed
# particulars: 333.15 K; 101.3 kPa; Liquid; Chromatography; x1 = 0
I'd appreciate it if you could supply activity coefficient values for the items below.
One number for each entry.

Take a look at these entries with their results.
Cc1ccccc1 [toluene] + COP(=O)([O-])OC.Cn1cc[n+](C)c1
7.51
CC(C)CC(C)(C)C [2,2,4-trimethylpentane] + COP(=O)([O-])OC.Cn1cc[n+](C)c1
284
CC1CCCCC1 [methylcyclohexane] + CCn1cc[n+](C)c1.COP(=O)([O-])OC
61.5
c1ccccc1 [benzene] + COP(=O)([O-])OC.Cn1cc[n+](C)c1
3.61

Below are some compounds; for each one, tell me its activity coefficient.
1. CCCCCCCC [octane] + COP(=O)([O-])OC.Cn1cc[n+](C)c1
2. C=Cc1ccccc1 [styrene] + CCn1cc[n+](C)c1.COP(=O)([O-])OC

1. 302
2. 5.16

----------
# assay.procedure: activity coefficient (dimensionless); of the first substance listed, at infinite dilution; xn = mol fraction of the nth substance listed
# particulars: 363.15 K; 101.3 kPa; Liquid; Chromatography; x1 = 0
Binning rule for recorded activity coefficient: low: < 10; middle: ≥ 10 and < 200; high: ≥ 200

CCCCC [pentane] + COP(=O)([O-])OC.Cn1cc[n+](C)c1
middle
C1CCCCC1 [cyclohexane] + CCn1cc[n+](C)c1.COP(=O)([O-])OC
middle
CCCCCC [hexane] + CCn1cc[n+](C)c1.COP(=O)([O-])OC
middle
c1ccccc1 [benzene] + CCn1cc[n+](C)c1.COP(=O)([O-])OC
low

Read the next record carefully.
Bin this entry: CCCCCC [hexane] + COP(=O)([O-])OC.Cn1cc[n+](C)c1 middle

----------
# assay.procedure: activity coefficient (dimensionless); of the first substance listed, at infinite dilution; xn = mol fraction of the nth substance listed
# particulars: 343.15 K; 101.3 kPa; Liquid; Chromatography; x1 = 0
Task for the reader: assign each of the following compounds its reported activity coefficient.
One number for each entry.

Worked cases, answers included:
C1CCCCC1 [cyclohexane] + CCn1cc[n+](C)c1.COP(=O)([O-])OC
40.6
CC1CCCCC1 [methylcyclohexane] + COP(=O)([O-])OC.Cn1cc[n+](C)c1
75.4

Kindly review the next compound as well.
Respond only with activity coefficient recorded for c1ccccc1 [benzene] + COP(=O)([O-])OC.Cn1cc[n+](C)c1 3.59

----------
# assay.procedure: activity coefficient (dimensionless); of the first substance listed, at infinite dilution; xn = mol fraction of the nth substance listed
# particulars: 353.15 K; 101.3 kPa; Liquid; Chromatography; x1 = 0
outcome.measure: activity coefficient
Give bare numbers.

CCCCCCCC [octane] + COP(=O)([O-])OC.Cn1cc[n+](C)c1
270
CCCCCC [hexane] + CCn1cc[n+](C)c1.COP(=O)([O-])OC
72.2
c1ccccc1 [benzene] + CCn1cc[n+](C)c1.COP(=O)([O-])OC
3.02

Required: activity coefficient, one value per compound below.
1. CC(C)CC(C)(C)C [2,2,4-trimethylpentane] + COP(=O)([O-])OC.Cn1cc[n+](C)c1
2. CCCCCCCCCC [decane] + CCn1cc[n+](C)c1.COP(=O)([O-])OC
3. CCCCCCC [heptane] + CCn1cc[n+](C)c1.COP(=O)([O-])OC
4. Cc1cccc(C)c1 [1,3-dimethylbenzene] + COP(=O)([O-])OC.Cn1cc[n+](C)c1

1. 244
2. 294
3. 111
4. 14.1

Can you give me activity coefficient for all of these, one by one?
1. Cc1ccccc1C [1,2-dimethylbenzene] + CCn1cc[n+](C)c1.COP(=O)([O-])OC
2. CCCCCCCCC [nonane] + COP(=O)([O-])OC.Cn1cc[n+](C)c1

[9.14, 345]

----------
# assay.procedure: activity coefficient (dimensionless); of the first substance listed, at infinite dilution; xn = mol fraction of the nth substance listed
# particulars: 333.15 K; 101.3 kPa; Liquid; Chromatography; x1 = 0
outcome.measure: activity coefficient
One number for each entry.

Completed entries (count: 3):
C1CCCCC1 [cyclohexane] + CCn1cc[n+](C)c1.COP(=O)([O-])OC
44
CCCCCCCCC [nonane] + CCn1cc[n+](C)c1.COP(=O)([O-])OC
225
CC1CCCCC1 [methylcyclohexane] + COP(=O)([O-])OC.Cn1cc[n+](C)c1
78.3

Next:
Please give the documented activity coefficient of CCCCCC [hexane] + COP(=O)([O-])OC.Cn1cc[n+](C)c1 230
